The measurements presented in this section are drawn from paper PMC5175396.

# Tested on: normal CRL2120 human skin fibroblasts
# Method description: Neutral red (NR) uptake cytotoxicity assay, normal CRL2120 fibroblasts
# Format: cell-based
# Stated conditions: Skin fibroblast, 72 h incubation
Observable: IC50 (µM)
Express it in µM; write the number only.

COc1cccc2c1C(=O)c1c(O)c3c(c(O)c1C2=O)C[C@@](O)(C(=O)CO)C[C@@H]3O[C@H]1C[C@H](N)[C@H](O)[C@H](C)O1 [Doxorubicin, reference compound]; 0.59

[in] Fill blank: measured IC50 of the molecule `CCCCCCCC1=C(O)C(=O)C=C(O)C1=O` is ____.
[out] 117

[in] Any idea what its IC50 is? The molecule is `CCC1=C(O)C(=O)C=C(O)C1=O`
[out] 95.5

[in] Would you mind telling me what IC50 value was observed for `CCCCCCCCCCCCCC1=C(O)C(=O)C=C(O)C1=O` ?
[out] 95.2

* * *

# System: A549 human non-small cell lung cancer (NSCLC) cell line
# Method description: Neutral red (NR) uptake cytotoxicity assay, A549
# Type: cell-based
# Stated conditions: Homo sapiens, A549, 72 h, neutral red assay, 72 h incubation
Each record here notes measured pIC50.
// returns pIC50 (minus log10 of molar concentration), number only

Below, each entry is followed by its recorded pIC50 result.
CCCCCCCCCCCCCCCC1=C(O)C(=O)C=C(O)C1=O; 4.36
CCCCCCCCCCCCCC1=C(O)C(=O)C=C(O)C1=O; 4.56
COC1=CC(=O)C(O)=C(CCCCCCCC=CCCCCCCCC2=C(O)C(=O)C(C)=C(O)C2=O)C1=O; 4.66
CCCCCCCC1=C(O)C(=O)C=C(O)C1=O; 3.97
CCCCC1=C(O)C(=O)C=C(O)C1=O; 4.16

Next:
[in] Value lookup for pIC50; key = CCCC/C=C\CCCCCCCCCCCCCC1=C(OC(C)=O)C(OC(C)=O)C(C)=C(OC(C)=O)C1OC(C)=O (stereo not drawn)
[out] 4.32

* * *

# Tested on: SPC212 human mesothelioma cell line
# Method description: Neutral red (NR) uptake cytotoxicity assay, SPC212
# Format: cell-based
# Stated conditions: Homo sapiens, 72 h, neutral red assay, 72 h incubation; read-out: IC50 SPC212
Observable: pIC50
The meaning of pIC50 here: minus log10 of the concentration in molar units.

Check out these entries, answers already filled in.
Cc1cc(O)c2c(c1)C(=O)c1cc(O)cc(O)c1C2=O; 4.00
Cc1cc(O)c2c(c1)C(=O)c1cccc(O)c1C2=O; 3.84
COC1=CC(=O)C(O)=C(CCCCCCCC=CCCCCCCCC2=C(O)C(=O)C(C)=C(O)C2=O)C1=O; 5.50
CC1=CC(=O)c2c(O)cccc2C1=O [Compound 4, 5-hydroxy-2-methyl-1,4-naphthalenedione]; 6.57
CCCC/C=C\CCCCCCCCCCCCCC1=C(OC(C)=O)C(OC(C)=O)C(C)=C(OC(C)=O)C1OC(C)=O (stereo not shown); 4.44
CCCCC1=C(O)C(=O)C=C(O)C1=O; 4.06

[in] Identify the measured pIC50 of `CCCCCCCCCCCC1=C(O)C(=O)C=C(OC)C1=O` for SPC212 human mesothelioma cell line.
[out] 4.42

* * *

# System: DLD-1 colorectal adenocarcinoma cell lines
# Method description: Neutral red (NR) uptake cytotoxicity assay, DLD-1
# Format: cell-based, human
# Stated conditions: Homo sapiens, DLD-1; neutral red assay, 72 h incubation; read-out: IC50 DLD-1
Observable: IC50 (µM)
Please reply with the bare figure in µM and do not write the unit itself.

Below: 3 molecules and their reported IC50.
COC1=CC(=O)C(O)=C(CCCCCCCC=CCCCCCCCC2=C(O)C(=O)C(C)=C(O)C2=O)C1=O; 114
CC1=CC(=O)c2c(O)cccc2C1=O [Compound 4, 5-hydroxy-2-methyl-1,4-naphthalenedione]; 0.98
CCCC/C=C\CCCCCCCCCCCCCC1=C(OC(C)=O)C(OC(C)=O)C(C)=C(OC(C)=O)C1OC(C)=O (stereo not drawn); 25.1

Now, please, on to the next molecule.
[in] I would be grateful if you could share the reported IC50 for `CCCCCCCCCCCCCC1=C(O)C(=O)C=C(O)C1=O` .
[out] 46.6

* * *

Quick reference for pIC50 among some molecules
# Tested on: DLD-1 colorectal adenocarcinoma cell lines
# Method description: Neutral red (NR) uptake cytotoxicity assay, DLD-1
# Type: cell-based, human
# Stated conditions: Homo sapiens, DLD-1; neutral red assay, 72 h incubation; read-out: IC50 DLD-1
Scale: negative log10 of molar concentration, which is what pIC50 denotes.

Worked examples, 2 molecules total:
Cc1cc(O)c2c(c1)C(=O)c1cc(O)cc(O)c1C2=O; 4.11
CCCCCCCCCCCC1=C(O)C(=O)C=C(OC)C1=O; 4.34

Proceeding to the next molecule to report its pIC50.
[in] Entry under review: `CCCCCCCCCCCCCCCC1=C(O)C(=O)C=C(O)C1=O` . Reported pIC50?
[out] 4.29

* * *

# Test system: MCF-7 breast adenocarcinoma cells
# Method description: Neutral red (NR) uptake cytotoxicity assay, MCF-7
# Format: cell-based, human
# Stated conditions: Homo sapiens, MCF7, 72 h, neutral red assay, 72 h incubation; read-out: IC50 MCF-7
Observable: IC50 (µM)
Report only the number, with the unit µM understood.

Below: 4 molecules and their reported IC50.
CCCCC1=C(O)C(=O)C=C(O)C1=O [Compound 7]; 64.6
CC1=CC(=O)c2c(O)cccc2C1=O [Compound 4, 5-hydroxy-2-methyl-1,4-naphthalenedione]; 0.06
CCCCCCCCCCCC1=C(O)C(=O)C=C(OC)C1=O [Compound 11]; 22.6
Cc1cc(O)c2c(c1)C(=O)c1cc(O)cc(O)c1C2=O [Compound 2, emodin]; 37.6

[in] Item CCCC1=C(O)C(=O)C=C(O)C1=O [Compound 6] has what recorded IC50?
[out] 162

[in] For CCCCCCCCCCCCCC1=C(O)C(=O)C=C(O)C1=O [Compound 9] , what is its reported IC50?
[out] 16.9

[in] Which IC50 is listed for CCCCCCCCCCCCCCCC1=C(O)C(=O)C=C(O)C1=O [Compound 10] ?
[out] 30.4

[in] What value of IC50 has been recorded for this entry: CCCCCCCC1=C(O)C(=O)C=C(O)C1=O [Compound 8]
[out] 38.8

* * *

# Method description: Neutral red (NR) uptake cytotoxicity assay, Caco-2
# Assay type: cell-based, human
# Stated conditions: human; IC50 in CRL2120 normal fibroblasts divided by IC50 in Caco-2; read-out: selectivity index Caco-2 (converted)
selectivity ratio at 72 h of 4 or higher: MET. Under 4: NOT MET.

Some solved cases for reference:
CCCC/C=C\CCCCCCCCCCCCCC1=C(OC(C)=O)C(OC(C)=O)C(C)=C(OC(C)=O)C1OC(C)=O (centres unmarked); NOT MET
CCCCCCCCCCCCCCCC1=C(O)C(=O)C=C(O)C1=O; MET
CCCCCCCCCCCC1=C(O)C(=O)C=C(OC)C1=O; NOT MET
CCCCCCCCCCCCCC1=C(O)C(=O)C=C(O)C1=O; MET

[in] Hi, just wondering whether CC1=CC(=O)c2c(O)cccc2C1=O [Compound 4, 5-hydroxy-2-methyl-1,4-naphthalenedione] shows selectivity ratio at 72 h of 4 or higher.
[out] MET

[in] Confirm if selectivity ratio at 72 h reported for the compound `CCCCCCCC1=C(O)C(=O)C=C(O)C1=O` is 4 or above.
[out] NOT MET

* * *

Each entry below carries its recorded selectivity index SPC212.
# Test system: SPC212 human mesothelioma cell line
# Method description: Neutral red (NR) uptake cytotoxicity assay, SPC212
# Format: cell-based
# Stated conditions: IC50 in CRL2120 normal fibroblasts divided by IC50 in SPC212

// below: answered compounds
Cc1cc(O)c2c(c1)C(=O)c1cccc(O)c1C2=O; > 1.08
COC1=CC(=O)C(O)=C(CCCCCCCC=CCCCCCCCC2=C(O)C(=O)C(C)=C(O)C2=O)C1=O; 22.72
CC1=CC(=O)c2c(O)cccc2C1=O [Compound 4, 5-hydroxy-2-methyl-1,4-naphthalenedione]; 250.59
Cc1cc(O)c2c(c1)C(=O)c1cc(O)cc(O)c1C2=O; > 1.49
CCCCCCCCCCCC1=C(O)C(=O)C=C(OC)C1=O; 1.15

[in] Which selectivity index SPC212 value is on record for `CCCCCCCCCCCCCC1=C(O)C(=O)C=C(O)C1=O` ?
[out] 41.96

[in] I have this compound here, `CCCCC1=C(O)C(=O)C=C(O)C1=O` , and I need its recorded selectivity index SPC212.
[out] > 2.32

[in] Need selectivity index SPC212, item CCCC/C=C\CCCCCCCCCCCCCC1=C(OC(C)=O)C(OC(C)=O)C(C)=C(OC(C)=O)C1OC(C)=O (stereo not drawn)
[out] 2.57

[in] Could you tell me which selectivity index SPC212 is on file for `CCCCCCCCCCCCCCCC1=C(O)C(=O)C=C(O)C1=O` ?
[out] > 14.81
